The reader will find reported IC50 values listed item by item below.
target: recombinant BACE1 protein (Homo sapiens, UniProt P56817); assay: Biochemical FRET based assay; conditions: recombinant BACE1 1 μg/ml, 120 minutes at room temperature, pH 5.0; read-out: Biochemical FRET based assay pIC50 (converted)
Sequence (P56817 46-501): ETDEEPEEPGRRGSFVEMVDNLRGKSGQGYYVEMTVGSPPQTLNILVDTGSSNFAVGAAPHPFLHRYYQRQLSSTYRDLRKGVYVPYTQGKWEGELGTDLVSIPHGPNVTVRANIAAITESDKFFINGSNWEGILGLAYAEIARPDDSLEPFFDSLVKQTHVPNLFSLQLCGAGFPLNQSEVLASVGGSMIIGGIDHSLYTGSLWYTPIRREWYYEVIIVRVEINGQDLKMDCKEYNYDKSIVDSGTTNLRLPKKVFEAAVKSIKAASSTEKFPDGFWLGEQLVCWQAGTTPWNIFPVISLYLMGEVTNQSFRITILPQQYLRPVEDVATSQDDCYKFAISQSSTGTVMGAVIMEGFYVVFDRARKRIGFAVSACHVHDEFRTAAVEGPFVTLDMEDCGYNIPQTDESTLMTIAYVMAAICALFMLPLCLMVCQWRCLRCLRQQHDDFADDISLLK
attribute.measured: IC50 (nM)

In [3]: df
Out[3]:
                                   molecule  limit_sign  value
0  N#Cc1ccc(C(=O)Nc2cccc([C@@]3(C4CC4)N=C(N)CO[C@H]3F)c2)nc1           =    182
1  CC1(c2cccc(NC(=O)c3ncc(Cl)cc3F)c2)N=C(N)COC1(F)C(F)(F)F (single isomer, unassigned) [Compound 174]           >  30200
2  NC1=N[C@@](c2cccc(-c3cncnc3)c2)(C2CC2)[C@@H](C(F)(F)F)OC1           =    851
3  Cc1ccc(C(=O)Nc2cccc(C3(C)N=C(N)COC3(F)C(F)(F)F)c2)nc1 (single isomer, unassigned) [Compound 192]           >  30200
